Where these numbers come from: ChEMBL document CHEMBL3758131

Ki tested on 5-hydroxytryptamine receptor 2A (Homo sapiens, UniProt P28223): recorded values
Sequence (P28223 whole entry): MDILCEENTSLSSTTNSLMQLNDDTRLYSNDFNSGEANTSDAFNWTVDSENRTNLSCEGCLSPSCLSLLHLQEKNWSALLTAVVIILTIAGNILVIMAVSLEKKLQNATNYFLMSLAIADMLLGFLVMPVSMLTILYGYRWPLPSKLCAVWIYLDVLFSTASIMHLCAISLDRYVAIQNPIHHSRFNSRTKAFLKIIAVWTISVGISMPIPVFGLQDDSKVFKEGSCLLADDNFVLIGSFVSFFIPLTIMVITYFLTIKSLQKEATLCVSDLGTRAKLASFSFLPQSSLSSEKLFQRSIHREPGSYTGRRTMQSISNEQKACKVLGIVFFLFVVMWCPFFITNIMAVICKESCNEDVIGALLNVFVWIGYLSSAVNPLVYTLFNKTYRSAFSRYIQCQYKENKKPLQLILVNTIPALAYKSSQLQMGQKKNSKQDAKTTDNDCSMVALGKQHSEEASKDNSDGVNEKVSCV
A number alone suffices; assume nM.

{"columns": ["recordSmiles", "Ki, nM"],
 "data": [
  ["O=S(=O)(NC1CCN(CCOc2ccccc2C2CCCC2)CC1)c1cccc(F)c1", 303]
]}

Next, consider the following compound.
Query: Recorded Ki of `CC(C)c1ccccc1OCCN1CCC(NS(=O)(=O)c2cccc(F)c2)CC1` , please.
Reply: 178

====

systemName: 5-hydroxytryptamine receptor 7 (Homo sapiens)
Sequence (P34969 whole entry): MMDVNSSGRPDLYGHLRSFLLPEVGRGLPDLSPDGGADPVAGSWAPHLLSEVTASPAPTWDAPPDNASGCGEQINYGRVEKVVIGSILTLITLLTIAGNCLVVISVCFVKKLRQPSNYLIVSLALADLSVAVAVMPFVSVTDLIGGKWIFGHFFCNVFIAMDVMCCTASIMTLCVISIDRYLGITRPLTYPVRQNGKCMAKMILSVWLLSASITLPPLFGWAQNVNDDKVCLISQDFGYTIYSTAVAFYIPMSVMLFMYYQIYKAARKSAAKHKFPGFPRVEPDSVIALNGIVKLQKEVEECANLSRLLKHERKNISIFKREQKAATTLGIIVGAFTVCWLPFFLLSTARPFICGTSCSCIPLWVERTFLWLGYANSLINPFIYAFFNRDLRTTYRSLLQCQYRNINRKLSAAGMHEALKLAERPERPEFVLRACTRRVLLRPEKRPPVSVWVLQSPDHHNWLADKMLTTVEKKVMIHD
Ki values for the compounds below.
A number alone suffices; assume nM.

{"columns": ["compound", "systemName", "Ki, nM"],
 "data": [
  ["O=S(=O)(NC1CCN(CCOc2ccccc2C2CCCC2)CC1)c1cccc(F)c1", "5-hydroxytryptamine receptor 7 (Homo sapiens)", 19],
  ["CC(C)(C)c1ccccc1OCCN1CCC(NS(=O)(=O)c2ccc(F)cc2)CC1", "5-hydroxytryptamine receptor 7 (Homo sapiens)", 54],
  ["Cc1ccccc1OCCN1CCC(NS(=O)(=O)c2ccc(F)cc2)CC1", "5-hydroxytryptamine receptor 7 (Homo sapiens)", 163]
]}

Query: Recorded Ki of `CC(C)c1ccccc1OCCN1CCC(NC(=O)c2ccc(F)cc2)CC1` , please.
Reply: 285

Query: Also need O=S(=O)(NC1CC2CCC(C1)N2CCOc1cccc(-c2ccccc2)c1)c1ccc(F)c(F)c1 (stereo not given) , thanks.
Reply: 20

Query: Also need `CC(C)(C)c1ccccc1OCCN1CCC(NS(=O)(=O)c2cccc(Cl)c2)CC1` , thanks.
Reply: 74

Query: Also need O=S(=O)(NC1CC2CCC(C1)N2CCOc1cccc(-c2ccccc2)c1)c1ccc(F)cc1 (stereo not given) , thanks.
Reply: 14

Query: Also need CC(C)c1ccccc1OCCN1CC2CC1CN2S(=O)(=O)c1ccc(F)cc1 (stereo not given) , thanks.
Reply: 162

Query: Also need `O=S(=O)(NC1CCN(CCOc2ccccc2C2CCCC2)CC1)c1ccc(F)cc1` , thanks.
Reply: 16
